# System: Echinochloa crus-galli (ECHCG)
# protocol: Pre-emergence Test, ECHCG
# Format: in vivo
# study conditions: 1000 g/ha, evaluated after 13 days
Kindly state percentage damage caused to the plant, ECHCG for each of the entries shown.

Query :: // returns reported percentage damage caused to the plant, ECHCG for input CO/N=C(\C)c1cccc2c1c(=O)c(C(=O)O)nn2-c1ccc(OC(F)(F)F)cc1 [Compound P2]
Result :: 5 (5=81-100%)

Query :: // returns reported percentage damage caused to the plant, ECHCG for input CCOC(=O)c1nn(-c2ccc(OC(F)(F)F)cc2)c2cccc(-n3ncc(C(F)(F)F)n3)c2c1=O [Compound P34]
Result :: 0 (0=0%)

Query :: // returns reported percentage damage caused to the plant, ECHCG for input O=C(O)c1nn(-c2ccc(OC(F)(F)F)cc2)c2cccc(-n3cc(Cl)cn3)c2c1=O [Compound P19]
Result :: 3 (3=41-60%)

Query :: // returns reported percentage damage caused to the plant, ECHCG for input O=C(O)c1nn(-c2ccc(OC(F)(F)F)cc2)c2cccc(N3CCOCC3)c2c1=O [Compound P25]
Result :: 0 (0=0%)

Query :: // returns reported percentage damage caused to the plant, ECHCG for input C=Cc1cccc2c1c(=O)c(C(=O)O)nn2-c1ccc(OC(F)(F)F)cc1 [Compound P17]
Result :: 2 (2=21-40%)

====

# Test system: Solarium nigrum (SOLNI)
# protocol: Pre-emergence Test, SOLNI
# Format: in vivo
# study conditions: 1000 g/ha, evaluated after 13 days
Kindly state percentage damage caused to the plant, SOLNI for each of the entries shown.

Query :: // returns reported percentage damage caused to the plant, SOLNI for input "C=C(OC)c1cccc2c1c(=O)c(C(=O)OC)nn2-c1ccc(OC(F)(F)F)cc1"
Result :: 0 (0=0%)

Query :: // returns reported percentage damage caused to the plant, SOLNI for input "COC(=O)c1nn(-c2ccc(OC(F)(F)F)cc2)c2cccc(C(C)=O)c2c1=O"
Result :: 3 (3=41-60%)

Query :: // returns reported percentage damage caused to the plant, SOLNI for input CO/N=C(\C)c1cccc2c1c(=O)c(C(=O)OC)nn2-c1ccc(OC(F)(F)F)cc1 [Compound P1]
Result :: 1 (1=10-20%)

Query :: // returns reported percentage damage caused to the plant, SOLNI for input "C=C(OCC)c1cccc2c1c(=O)c(C(=O)OC)nn2-c1ccc(OC(F)(F)F)cc1"
Result :: 2 (2=21-40%)

Query :: // returns reported percentage damage caused to the plant, SOLNI for input "COC(=O)c1nn(-c2ccc(OC(F)(F)F)cc2)c2cccc(-c3ccc(F)cc3)c2c1=O"
Result :: 0 (0=0%)

Query :: // returns reported percentage damage caused to the plant, SOLNI for input "O=C(O)c1nn(-c2ccc(OC(F)(F)F)cc2)c2cccc(-c3ncco3)c2c1=O"
Result :: 0 (0=0%)

Query :: // returns reported percentage damage caused to the plant, SOLNI for input CO/N=C(\C)c1cccc2c1c(=O)c(C(=O)O)nn2-c1ccc(OC(F)(F)F)cc1 [Compound P2]
Result :: 2 (2=21-40%)

Query :: // returns reported percentage damage caused to the plant, SOLNI for input "O=C(O)c1nn(-c2ccc(Cl)cc2)c2cccc(Oc3ccc(F)cc3)c2c1=O"
Result :: 5 (5=81-100%)

Query :: // returns reported percentage damage caused to the plant, SOLNI for input "COC(=O)c1nn(-c2ccc(OC(F)(F)F)cc2)c2cccc(C#N)c2c1=O"
Result :: 0 (0=0%)

Query :: // returns reported percentage damage caused to the plant, SOLNI for input "CC(=O)c1cccc2c1c(=O)c(C(=O)O)nn2-c1ccc(OC(F)(F)F)cc1"
Result :: 1 (1=10-20%)

Query :: // returns reported percentage damage caused to the plant, SOLNI for input "N#Cc1cccc2c1c(=O)c(C(=O)O)nn2-c1ccc(OC(F)(F)F)cc1"
Result :: 1 (1=10-20%)
